Below, each of the molecules is paired with its reported IC50 value.
Tested on: SKBr3 (estrogen receptor negative, HER2 over-expressing breast cancer cells)
ASSAY_PROTOCOL: Anti-proliferation assay (MTS/PMS, 72 h), SKBr3
Type: cell-based
RUN_PARAMETERS: Homo sapiens, SK-BR-3, Table 1, ortho, meta and para biphenyl cores
QUANTITY_NAME: IC50 (µM)

>>> observed("CN1CCC(Oc2cccc(-c3cccc(NC(=O)C45CC6CC(CC(C6)C4)C5)c3)c2)CC1 [Compound 61b]")
2.6
>>> observed("CN1CCC(Oc2ccc(-c3cccc(NC(=O)c4ccc(C(C)(C)C)cc4)c3)cc2)CC1")
1.51
>>> observed("COc1cccc(-c2cc(C(=O)Nc3ccc(-c4ccc(OC5CCN(C)CC5)cc4)cc3)ccc2OC)c1")
0.47
>>> observed("COc1cccc(-c2cc(C(=O)Nc3cccc(-c4ccc(OC5CCN(C)CC5)cc4)c3)ccc2OC)c1")
3.65
>>> observed("COc1ccc(C(=O)Nc2cccc(-c3cccc(OC4CCN(C)CC4)c3)c2)cc1 [Compound 61h]")
13.2
>>> observed("CN1CCC(Oc2ccc(-c3ccc(NC(=O)c4ccc(C(C)(C)C)cc4)cc3)cc2)CC1 [Compound 41g]")
1.26
>>> observed("CN1CCC(Oc2ccc(-c3ccc(NC(=O)c4ccc(Cl)cc4)cc3)cc2)CC1 [Compound 41b]")
0.57
>>> observed("CC(=O)Oc1ccc(C(=O)Nc2cccc(-c3ccc(OC4CCN(C)CC4)cc3)c2)cc1CC=C(C)C [Compound 61e]")
3.47
>>> observed("COc1ccc(C(=O)Nc2cccc(-c3ccc(OC4CCN(C)CC4)cc3)c2)cc1")
10.1
>>> observed("COc1ccc(C(=O)Nc2ccc(-c3ccc(OC4CCN(C)CC4)cc3)cc2)cc1 [Compound 41f]")
0.49

----------
Test system: SKBr3 (estrogen receptor negative, HER2 over-expressing breast cancer cells)
ASSAY_PROTOCOL: Anti-proliferation assay (MTS/PMS, 72 h), SKBr3
Assay type: cell-based
RUN_PARAMETERS: Homo sapiens, SK-BR-3, Table 10, longer alkyl chain substituted biphenyl core
pIC50: −log10 of the molar value.
Below, each of the molecules is paired with its reported pIC50 value.
QUANTITY_NAME: pIC50

>>> observed("COc1cccc(-c2cc(C(=O)Nc3ccc(-c4ccc(OC5CCN(C)CC5)c(CCC(C)C)c4)cc3)ccc2OC)c1")
5.93
>>> observed("CCCOc1ccc(C(=O)Nc2ccc(-c3ccc(OC4CCN(C)CC4)cc3)cc2)cc1-c1cccc(OC)c1")
5.99

----------
Below, each of the molecules is paired with its reported pIC50 value.
Tested on: SKBr3 (estrogen receptor negative, HER2 over-expressing breast cancer cells)
ASSAY_PROTOCOL: Anti-proliferation assay (MTS/PMS, 72 h), SKBr3
Type: cell-based
RUN_PARAMETERS: Homo sapiens, SK-BR-3, Table 1, ortho, meta and para biphenyl cores
pIC50: −log10 of the molar value.
QUANTITY_NAME: pIC50

>>> observed("CN1CCC(Oc2ccc(-c3ccc(NC(=O)C45CC6CC(CC(C6)C4)C5)cc3)cc2)CC1 [Compound 61c]")
5.68
>>> observed("CC(=O)Oc1ccc(C(=O)Nc2ccc(-c3ccc(OC4CCN(C)CC4)cc3)cc2)cc1CC=C(C)C [Compound 61j]")
5.74
>>> observed("CN1CCC(Oc2ccc(-c3cccc(NC(=O)C45CC6CC(CC(C6)C4)C5)c3)cc2)CC1 [Compound 61a]")
5.90
>>> observed("CN1CCC(Oc2cccc(-c3cccc(NC(=O)c4ccc(Cl)cc4)c3)c2)CC1 [Compound 61g]")
5.38
>>> observed("COc1cccc(-c2cc(C(=O)Nc3cccc(-c4cccc(OC5CCN(C)CC5)c4)c3)ccc2OC)c1 [Compound 61d]")
5.79
>>> observed("CC(=O)Oc1ccc(C(=O)Nc2cccc(-c3cccc(OC4CCN(C)CC4)c3)c2)cc1CC=C(C)C [Compound 61f]")
5.75
>>> observed("CN1CCC(Oc2ccc(-c3cccc(NC(=O)c4ccc(Cl)cc4)c3)cc2)CC1")
5.44
>>> observed("CN1CCC(Oc2cccc(-c3cccc(NC(=O)c4ccc(C(C)(C)C)cc4)c3)c2)CC1 [Compound 61i]")
5.47
